System: CD2F1 mice, L1210 leukemia ip, survival T/C
ASSAY_METHOD_TEXT: NCI In Vivo Anticancer Drug Screen. Data for tumor model L1210 Leukemia (intraperitoneal) in CD2F1 (CDF1) mice
EXPERIMENTAL_CONDITIONS: endpoint: median survival time; dose: 50.0 mg/kg/injection; schedule: Q01DX005 (ip); vehicle: saline with Tween-80
Toxic doses and inconclusive results are not listed. The calls were made as follows: active = survival T/C of 150% or more; inactive = T/C below 125% in these data.
The reply should be one of these categories: y for active, n for inactive

Enquiry: What call does the record list for Nc1nc(=O)n(C2OC(CO)C(O)C2Cl)cc1I (centres undefined) ?
Return: n

Enquiry: What call does the record list for O=c1nc2n(cc1F)C1OC(CCl)C(O)C1O2 (centres undefined) ?
Return: n

Enquiry: What call does the record list for CSc1nc(NC2OC(CO)C(O)C(O)C2O)c(Br)c(=O)n1C (centres undefined) ?
Return: n

Enquiry: What call does the record list for Nc1nc(N)c2c(Cl)c(CNc3ccc(Cl)c(Cl)c3)ccc2n1 ?
Return: y

----------
Tested on: CD2F1 mice, L1210 leukemia ip, survival T/C
ASSAY_METHOD_TEXT: NCI In Vivo Anticancer Drug Screen. Data for tumor model L1210 Leukemia (intraperitoneal) in CD2F1 (CDF1) mice
EXPERIMENTAL_CONDITIONS: endpoint: mean survival time; dose: 6.25 mg/kg/injection; schedule: Q01DX009 (ip); vehicle: saline with Tween-80; higher = longer survival
Inconclusive results and toxic doses are left out.
MEASURED_ENDPOINT: T/C

Enquiry: Name the recorded T/C for COc1cc(O)c2c(O)c3c(c4c2c1[C@]1(C4)C(C)=CCCC1(C)C)[C@H](O)[C@@]1(O)CC(=O)C(C(N)=O)=C(O)[C@@]1(O)C3=O .
Return: 104 % of control

Enquiry: Name the recorded T/C for COCNC(=S)N/N=C/c1ccccn1 .
Return: 97 % of control

Enquiry: Name the recorded T/C for CCN(CC)CCCC(C)Nc1ncnc2oc(C)c(C)c12 (stereo unspecified) .
Return: 93 % of control

Enquiry: Name the recorded T/C for Cc1cc(C)c(N2C(=O)C=CC2=O)c(C)c1 .
Return: 94 % of control

Enquiry: Name the recorded T/C for CC1CCCC(C)N1CC(O)c1ccccc1 (stereo unspecified) .
Return: 98 % of control

Enquiry: Name the recorded T/C for NNC(=S)N/N=C/c1ccccn1 .
Return: 105 % of control

----------
Test system: CD2F1 mice, L1210 leukemia ip, survival T/C
ASSAY_METHOD_TEXT: NCI In Vivo Anticancer Drug Screen. Data for tumor model L1210 Leukemia (intraperitoneal) in CD2F1 (CDF1) mice
EXPERIMENTAL_CONDITIONS: endpoint: mean survival time; dose: 12.5 mg/kg/injection; schedule: Q01DX009 (ip); vehicle: saline with Tween-80; higher = longer survival
Toxic doses and inconclusive results are not listed.
MEASURED_ENDPOINT: T/C

Enquiry: Name the recorded T/C for O=C(Nc1ccc(C2=NCCN2)cc1)c1ccc(C(=O)Nc2ccc(C3=NCCN3)cc2)c(Cl)c1 .
Return: 203 % of control

Enquiry: Name the recorded T/C for CCc1ccc(C2=C(O)C(=O)C(c3ccc(CC)cc3)=C(O)C2=O)cc1 .
Return: 104 % of control

Enquiry: Name the recorded T/C for CCOC(=O)C(Br)(Br)C(=O)OCC .
Return: 99 % of control

Enquiry: Name the recorded T/C for CC#CC(=O)SCCNC(=O)CCNC(C)=O .
Return: 112 % of control

Enquiry: Name the recorded T/C for CCN(CC)CCCC(C)Nc1ncnc2oc(C)c(C)c12 (stereo not drawn) .
Return: 95 % of control

Enquiry: Name the recorded T/C for CC(=O)Nc1ccc(OCCOC(=O)Nc2ccc(C)c([N+](=O)[O-])c2)cc1 .
Return: 92 % of control

Enquiry: Name the recorded T/C for C[N+](C)(C)/N=C/C=C/c1ccccc1 .
Return: 104 % of control

Enquiry: Name the recorded T/C for COCNC(=S)N/N=C/c1ccccn1 .
Return: 100 % of control

Provenance of the data: PubChem BioAssay AID256
